system_tested: panel of more than 300 wild-type and mutant kinases (313 kinase panel) (Homo sapiens, UniProt Q8IY84)
method_summary: Kinase profiling in a biochemical assay panel (mobility shift assays and ELISA), %-inhibition at 1 μM; selectivity entropy
assay_setup: kinase MGC42105; 1 μM
Can you tell me %-inhibition of MGC42105 for the items I'm about to list?

So for C[C@@H](Oc1cc(-c2cnn(C3CCNCC3)c2)cnc1N)c1c(Cl)ccc(F)c1Cl , the logged %-inhibition of MGC42105 turned out to be -6%

So for CO[C@H]1C[C@@H]2CC[C@@H](C)[C@@](O)(O2)C(=O)C(=O)N2CCCC[C@H]2C(=O)O[C@H]([C@H](C)C[C@@H]2CC[C@@H](OCCO)[C@H](OC)C2)CC(=O)[C@H](C)/C=C(\C)[C@@H](O)[C@@H](OC)C(=O)[C@H](C)C[C@H](C)/C=C/C=C/C=C/1C , the logged %-inhibition of MGC42105 turned out to be -4%

So for Cc1nc(Nc2ncc(C(=O)Nc3c(C)cccc3Cl)s2)cc(N2CCN(CCO)CC2)n1 , the logged %-inhibition of MGC42105 turned out to be -0.563%

* * *

Can you tell me %-inhibition of PKCβ1 for the items I'm about to list?
system_tested: panel of more than 300 wild-type and mutant kinases (313 kinase panel) (Homo sapiens)
method_summary: Kinase profiling in a biochemical assay panel (mobility shift assays and ELISA), %-inhibition at 1 μM; selectivity entropy
assay_setup: kinase PKCβ1; 1 μM
Please reply with the bare figure in % and do not write the unit itself.

Entry COc1cc2nccc(Oc3ccc(NC(=O)C4(C(=O)Nc5ccc(F)cc5)CC4)cc3)c2cc1OC [cabozantinib] ; assay system panel of more than 300 wild-type and mutant kinases (313 kinase panel) (Homo sapiens); %-inhibition of PKCβ1 recorded at 1.48

Entry CNC(=O)c1cc(Oc2ccc(NC(=O)Nc3ccc(Cl)c(C(F)(F)F)c3)c(F)c2)ccn1 ; assay system panel of more than 300 wild-type and mutant kinases (313 kinase panel) (Homo sapiens); %-inhibition of PKCβ1 recorded at -7

Entry CO[C@H]1C[C@@H]2CC[C@@H](C)[C@@](O)(O2)C(=O)C(=O)N2CCCC[C@H]2C(=O)O[C@H]([C@H](C)C[C@@H]2CC[C@@H](OCCO)[C@H](OC)C2)CC(=O)[C@H](C)/C=C(\C)[C@@H](O)[C@@H](OC)C(=O)[C@H](C)C[C@H](C)/C=C/C=C/C=C/1C ; assay system panel of more than 300 wild-type and mutant kinases (313 kinase panel) (Homo sapiens); %-inhibition of PKCβ1 recorded at 29

Entry Cc1ccc(C(=O)Nc2ccc(CN3CCN(C)CC3)c(C(F)(F)F)c2)cc1C#Cc1cnc2cccnn12 ; assay system panel of more than 300 wild-type and mutant kinases (313 kinase panel) (Homo sapiens); %-inhibition of PKCβ1 recorded at -5.61

Entry Cc1cn(-c2cc(NC(=O)c3ccc(C)c(Nc4nccc(-c5cccnc5)n4)c3)cc(C(F)(F)F)c2)cn1 ; assay system panel of more than 300 wild-type and mutant kinases (313 kinase panel) (Homo sapiens); %-inhibition of PKCβ1 recorded at 3.41

Entry COc1cc2c(Nc3ccc(Br)cc3F)ncnc2cc1OCC1CCN(C)CC1 ; assay system panel of more than 300 wild-type and mutant kinases (313 kinase panel) (Homo sapiens); %-inhibition of PKCβ1 recorded at -6

Entry Cc1ccc(Nc2nccc(N(C)c3ccc4c(C)n(C)nc4c3)n2)cc1S(N)(=O)=O ; assay system panel of more than 300 wild-type and mutant kinases (313 kinase panel) (Homo sapiens); %-inhibition of PKCβ1 recorded at -4.7

Entry CC(=O)Nc1cccc(-n2c(=O)n(C3CC3)c(=O)c3c(Nc4ccc(I)cc4F)n(C)c(=O)c(C)c32)c1 ; assay system panel of more than 300 wild-type and mutant kinases (313 kinase panel) (Homo sapiens); %-inhibition of PKCβ1 recorded at -3.47

Entry CCCS(=O)(=O)Nc1ccc(F)c(C(=O)c2c[nH]c3ncc(-c4ccc(Cl)cc4)cc23)c1F ; assay system panel of more than 300 wild-type and mutant kinases (313 kinase panel) (Homo sapiens); %-inhibition of PKCβ1 recorded at -3.81

Entry O=S(=O)(c1cccc2cnccc12)N1CCCNCC1 ; assay system panel of more than 300 wild-type and mutant kinases (313 kinase panel) (Homo sapiens); %-inhibition of PKCβ1 recorded at 16

Entry CO[C@H]1C[C@@H]2CC[C@@H](C)[C@@](O)(O2)C(=O)C(=O)N2CCCC[C@H]2C(=O)O[C@H]([C@H](C)C[C@@H]2CC[C@@H](OC(=O)C(C)(CO)CO)[C@H](OC)C2)CC(=O)[C@H](C)/C=C(\C)[C@@H](O)[C@@H](OC)C(=O)[C@H](C)C[C@H](C)/C=C/C=C/C=C/1C ; assay system panel of more than 300 wild-type and mutant kinases (313 kinase panel) (Homo sapiens); %-inhibition of PKCβ1 recorded at -2

Entry C[C@@H](Oc1cc(-c2cnn(C3CCNCC3)c2)cnc1N)c1c(Cl)ccc(F)c1Cl ; assay system panel of more than 300 wild-type and mutant kinases (313 kinase panel) (Homo sapiens); %-inhibition of PKCβ1 recorded at -3

Entry CS(=O)(=O)CCNCc1ccc(-c2ccc3ncnc(Nc4ccc(OCc5cccc(F)c5)c(Cl)c4)c3c2)o1 ; assay system panel of more than 300 wild-type and mutant kinases (313 kinase panel) (Homo sapiens); %-inhibition of PKCβ1 recorded at -6

Entry COc1cc(Nc2c(C#N)cnc3cc(OCCCN4CCN(C)CC4)c(OC)cc23)c(Cl)cc1Cl ; assay system panel of more than 300 wild-type and mutant kinases (313 kinase panel) (Homo sapiens); %-inhibition of PKCβ1 recorded at 3.68

Entry N#CC[C@H](C1CCCC1)n1cc(-c2ncnc3[nH]ccc23)cn1 ; assay system panel of more than 300 wild-type and mutant kinases (313 kinase panel) (Homo sapiens); %-inhibition of PKCβ1 recorded at 1.35

* * *

system_tested: panel of more than 300 wild-type and mutant kinases (313 kinase panel) (Homo sapiens, UniProt P19784)
Sequence (P19784 whole entry, change not shown): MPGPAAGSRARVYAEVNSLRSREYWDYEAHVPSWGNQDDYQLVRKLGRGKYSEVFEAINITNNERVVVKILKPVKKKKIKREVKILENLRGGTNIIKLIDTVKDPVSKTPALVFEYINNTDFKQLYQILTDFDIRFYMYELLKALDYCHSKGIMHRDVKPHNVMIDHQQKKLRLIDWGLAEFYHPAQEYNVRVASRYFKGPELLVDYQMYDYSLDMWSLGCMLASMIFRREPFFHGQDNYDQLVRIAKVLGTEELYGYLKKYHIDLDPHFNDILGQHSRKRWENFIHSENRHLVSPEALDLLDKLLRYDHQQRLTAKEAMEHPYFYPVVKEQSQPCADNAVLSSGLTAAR
method_summary: Kinase profiling in a biochemical assay panel (mobility shift assays and ELISA), %-inhibition at 1 μM; selectivity entropy
assay_setup: kinase CK2α2/β; 1 μM compound
Can you tell me %-inhibition, CK2α2/β for the items I'm about to list?
Please reply with the bare figure in % and do not write the unit itself.

So for CS(=O)(=O)CCNCc1ccc(-c2ccc3ncnc(Nc4ccc(OCc5cccc(F)c5)c(Cl)c4)c3c2)o1 , the logged %-inhibition, CK2α2/β turned out to be -3.45

So for COc1cc2nccc(Oc3ccc(NC(=O)C4(C(=O)Nc5ccc(F)cc5)CC4)cc3)c2cc1OC [cabozantinib] , the logged %-inhibition, CK2α2/β turned out to be 9

So for CO[C@H]1C[C@@H]2CC[C@@H](C)[C@@](O)(O2)C(=O)C(=O)N2CCCC[C@H]2C(=O)O[C@H]([C@H](C)C[C@@H]2CC[C@@H](OC(=O)C(C)(CO)CO)[C@H](OC)C2)CC(=O)[C@H](C)/C=C(\C)[C@@H](O)[C@@H](OC)C(=O)[C@H](C)C[C@H](C)/C=C/C=C/C=C/1C , the logged %-inhibition, CK2α2/β turned out to be -5.28

So for O=S(=O)(c1cccc2cnccc12)N1CCCNCC1 , the logged %-inhibition, CK2α2/β turned out to be -3.75

So for CNC(=O)c1cc(Oc2ccc(NC(=O)Nc3ccc(Cl)c(C(F)(F)F)c3)c(F)c2)ccn1 , the logged %-inhibition, CK2α2/β turned out to be -5.46

So for Cc1ccc(Nc2nccc(N(C)c3ccc4c(C)n(C)nc4c3)n2)cc1S(N)(=O)=O , the logged %-inhibition, CK2α2/β turned out to be 0.17

So for CCN(CC)CCNC(=O)c1c(C)[nH]c(/C=C2\C(=O)Nc3ccc(F)cc32)c1C , the logged %-inhibition, CK2α2/β turned out to be 25

So for COc1cc2c(Nc3ccc(Br)cc3F)ncnc2cc1OCC1CCN(C)CC1 , the logged %-inhibition, CK2α2/β turned out to be -7

So for Cc1nc(Nc2ncc(C(=O)Nc3c(C)cccc3Cl)s2)cc(N2CCN(CCO)CC2)n1 , the logged %-inhibition, CK2α2/β turned out to be -4.67

So for C[C@@H](Oc1cc(-c2cnn(C3CCNCC3)c2)cnc1N)c1c(Cl)ccc(F)c1Cl , the logged %-inhibition, CK2α2/β turned out to be -10

So for CC(=O)Nc1cccc(-n2c(=O)n(C3CC3)c(=O)c3c(Nc4ccc(I)cc4F)n(C)c(=O)c(C)c32)c1 , the logged %-inhibition, CK2α2/β turned out to be -5.29

So for CO[C@H]1C[C@@H]2CC[C@@H](C)[C@@](O)(O2)C(=O)C(=O)N2CCCC[C@H]2C(=O)O[C@H]([C@H](C)C[C@@H]2CC[C@@H](OCCO)[C@H](OC)C2)CC(=O)[C@H](C)/C=C(\C)[C@@H](O)[C@@H](OC)C(=O)[C@H](C)C[C@H](C)/C=C/C=C/C=C/1C , the logged %-inhibition, CK2α2/β turned out to be -1.28

So for CCCS(=O)(=O)Nc1ccc(F)c(C(=O)c2c[nH]c3ncc(-c4ccc(Cl)cc4)cc23)c1F , the logged %-inhibition, CK2α2/β turned out to be -6.56
